# TARGET_OR_SYSTEM: Glucose-dependent insulinotropic receptor (Homo sapiens, UniProt Q8TDV5)
# Sequence (Q8TDV5 whole entry): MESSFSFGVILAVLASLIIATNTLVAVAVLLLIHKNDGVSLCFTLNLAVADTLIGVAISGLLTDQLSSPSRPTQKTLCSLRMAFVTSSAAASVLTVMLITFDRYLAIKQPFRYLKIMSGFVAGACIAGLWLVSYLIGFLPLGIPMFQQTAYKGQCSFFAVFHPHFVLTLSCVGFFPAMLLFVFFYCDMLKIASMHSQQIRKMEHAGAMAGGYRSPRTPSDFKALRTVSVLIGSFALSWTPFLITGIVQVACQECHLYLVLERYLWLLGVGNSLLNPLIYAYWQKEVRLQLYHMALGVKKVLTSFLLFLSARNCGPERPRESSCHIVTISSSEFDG
# EXPERIMENTAL_DETAILS: Inverse agonist activity at GPR119 expressed in HEK293 cells assessed as cAMP level by flash plate assay
ASSAY_ENDPOINT: IC50 (µM)

A: CCOC(=O)C1CCN(c2ncnc(Oc3ccc(Br)cc3)c2[N+](=O)[O-])CC1
B: CCOC(=O)C1CCN(c2ncnc(Oc3ccc(OCCOC)cc3)c2[N+](=O)[O-])CC1
C: CCOC(=O)C1CCN(c2ncnc(Oc3cc(C(F)(F)F)nn3C)c2[N+](=O)[O-])CC1
Put the above molecules in order of rising IC50, beginning with the smallest. Labels, ranked as asked. A, C, B
(A: 0.05 µM, C: 0.084 µM, B: 0.5 µM)

Where do these numbers come from? They come from ChEMBL document CHEMBL1139413.
